Target: glutathione-S-transferase (GST) tagged LXRalpha LBD (ligand binding domain) (Homo sapiens)
Construct: purchased Invitrogen pv4655
Sequence (Q13133 209-447 limits assumed): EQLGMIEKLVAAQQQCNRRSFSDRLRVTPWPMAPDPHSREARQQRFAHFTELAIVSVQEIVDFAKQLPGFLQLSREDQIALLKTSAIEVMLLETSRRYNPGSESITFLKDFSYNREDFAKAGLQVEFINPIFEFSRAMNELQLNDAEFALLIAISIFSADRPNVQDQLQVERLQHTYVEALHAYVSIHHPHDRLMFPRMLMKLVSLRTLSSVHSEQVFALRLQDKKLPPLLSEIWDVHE
Assay: LanthaScreen TR-FRET Liver X Receptor Coactivator Assay, co-activator recruitment to LXRalpha LBD
Format: biochemical
Conditions: potency (Inflection Point, IP), co-activator recruitment to LXRalpha LBD, in relation to T0901317; read-out: LXR alpha IP
Assay Metric: EC50 (nM)

Example entries begin here.
CN(C)C(=O)c1ccc(N2CCC(CC3CCN(C(=O)[C@](O)(c4ccccc4F)C(F)(F)F)CC3)CC2)nc1Cl: 425
CN(C)C(=O)c1ncc(N2CCC(CC3CCN(C(=O)C(O)(c4cccc(F)c4)C(F)(F)F)CC3)CC2)cc1Cl (stereo not shown): 464
CC(C)N(C)C(=O)c1ccc(N2CCC(CC3CCN(C(=O)[C@](O)(c4ccccc4)C(F)(F)F)CC3)CC2)cc1Cl: 270
COc1cc(F)cc([C@@](O)(C(=O)N2CC(CC3CCN(c4ccc(C(=O)N(C)C)c(Cl)c4)CC3)C2)C(F)(F)F)c1: 277
CNC(=O)c1ccc(N2CCC(CC3CCN(C(=O)[C@](O)(c4cccc(C(C)C)c4)C(F)(F)F)CC3)CC2)nc1Cl: 163

(P) CNC(=O)c1ccc(N2CCC(CC3CCN(C(=O)[C@](O)(c4cccc(Br)c4)C(F)(F)F)CC3)CC2)nc1Cl
(Q) CN(C)C(=O)c1ccc(N2CCC(CC3CCN(C(=O)C4(c5ccccc5Cl)CC4)CC3)CC2)nc1Cl
Among P and Q , which shows a numerically higher EC50 result? Give the label under which the chosen entry appears. Q

====

Target: glutathione-S-transferase (GST) tagged LXRbeta LBD (ligand binding domain) (Homo sapiens, UniProt P55055)
Construct: purchased Invitrogen pv4658.pps
Sequence (P55055 222-460 limits assumed): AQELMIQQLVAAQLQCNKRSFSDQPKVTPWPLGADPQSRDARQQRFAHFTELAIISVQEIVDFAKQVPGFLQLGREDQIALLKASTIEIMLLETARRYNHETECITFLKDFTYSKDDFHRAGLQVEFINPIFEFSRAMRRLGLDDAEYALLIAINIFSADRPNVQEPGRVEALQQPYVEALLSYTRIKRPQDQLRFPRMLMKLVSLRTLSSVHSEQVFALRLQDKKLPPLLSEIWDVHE
Experiment: LanthaScreen TR-FRET Liver X Receptor Coactivator Assay, co-activator recruitment to LXRbeta LBD
Format: biochemical
Details: potency (Inflection Point, IP), co-activator recruitment to LXRbeta LBD, in relation to T0901317; read-out: LXR beta IP
Text: […]
pEC50: −log10 of the molar value.
Assay Metric: pEC50

Please review the following examples before continuing.
CN(C)C(=O)c1ccc(N2CCC(CC3(C)CCN(C(=O)[C@](O)(c4ccccc4)C(F)(F)F)CC3)CC2)cc1Cl: 9.00
CN(C)CCNC(=O)c1ccc(N2CCC(CC3CCN(C(=O)[C@](O)(c4ccccc4)C(F)(F)F)CC3)CC2)cc1Cl: 6.74
CN(C)C(=O)c1ccc(N2CCC(CC3CCN(C(=O)[C@](O)(c4cc(F)cc(F)c4)C(F)(F)F)CC3)CC2)cc1Cl: 8.40
CC(C)Oc1cccc([C@@](O)(C(=O)N2CC(CC3CCN(c4ccc(C(=O)N(C)C)c(Cl)n4)CC3)C2)C(F)(F)F)c1: 7.52
COc1cccc([C@@](O)(C(=O)N2CCC(OC3CCN(c4ccc(C(=O)N(C)C)c(Cl)n4)CC3)CC2)C(F)(F)F)c1: 7.60

(a) CCOc1cccc([C@@](O)(C(=O)N2CC(CC3CCN(c4ccc(C(=O)N(C)C)c(Cl)n4)CC3)C2)C(F)(F)F)c1
(b) CN(C)C(=O)c1ccc(N2CCC(CC3CCN(C(=O)[C@](O)(c4cccc(C#N)c4)C(F)(F)F)CC3)CC2)cc1Cl
Sorting ascending by pEC50, which comes first: a or b ? Reply with the label of the item you choose. a

(P) CNC(=O)c1ccc(N2CCC(CC3CCN(C(=O)[C@](O)(c4cccc(OC)c4)C(F)(F)C(F)(F)F)CC3)CC2)cc1Cl
(Q) CNC(=O)c1ccc(N2CCC(CC3CCN(C(=O)C4(c5ccccc5F)CCCC4)CC3)CC2)cc1Cl
(R) CNC(=O)c1ccc(N2CCC(OC3CCN(C(=O)C(O)(c4cccc(Cl)c4)C(F)(F)F)CC3)CC2)cc1Cl (centres unmarked)
(S) CN(C)C(=O)c1ccc(N2CCC(CC3CCN(C(=O)[C@](O)(c4ccccc4F)C(F)(F)F)CC3)CC2)cc1Cl
Ascending sort, pEC50. In your reply, arrange the labels in the requested order. Q, R, P, S
(Q: 6.77, R: 7.28, P: 7.55, S: 7.77)

(1) CNC(=O)c1ccc(N2CCC(CC3CCN(C(=O)[C@](O)(c4ccccc4)C(F)(F)F)CC3)CC2)cc1Cl [Example 7-25]
(2) CN(Cc1ccon1)C(=O)c1ccc(N2CCC(CC3CCN(C(=O)[C@](O)(c4ccccc4)C(F)(F)F)CC3)CC2)cc1Cl
(3) CN(C)C(=O)c1ccc(N2CCC(CC3CN(C(=O)C(N)(c4ccccc4)C(F)(F)F)C3)CC2)cc1Cl (centres unmarked)
(4) CN(C)C(=O)c1ccc(N2CCC(CC3CCN(C(=O)C(F)(F)c4ccc(F)cc4)CC3)CC2)nc1Cl
Endpoint returns the given compounds ordered by ascending pEC50. Please list each label once, in the requested order. 3, 4, 1, 2

(A) CN(C)C(=O)c1ccc(N2CCC(CC3CN(C(=O)[C@](O)(c4ccccc4)C(F)(F)F)C3)CC2)cc1Cl
(B) CN(C)C(=O)c1ccc(N2CCC(CC3CCN(C(=O)C(O)(c4cccc(C(F)(F)F)c4)C(F)(F)F)CC3)CC2)nc1Cl (centres unmarked)
Sort A and B by pEC50 descending and give the first. Kindly state the label of the option you pick. B

(P) CN(C)C(=O)c1ccc(N2CCC(OC3CCN(C(=O)[C@](O)(c4cc(Cl)cc(Cl)c4)C(F)(F)F)CC3)CC2)cc1Cl
(Q) CN(C)C(=O)c1ccc(N2CCC(CC3CCN(C(=O)[C@](O)(c4cccc(OCC(F)(F)F)c4)C(F)(F)F)CC3)CC2)cc1Cl
(R) Cc1cccc([C@@](O)(C(=O)N2CCC(CC3CCN(c4ccc(C(=O)N(C)C)c(Cl)n4)CC3)CC2)C(F)(F)F)c1
Ordering criterion: pEC50; begin with the maximum. List each label, following the requested order. R, P, Q
(R: 8.40, P: 8.05, Q: 7.40)

(1) COc1cccc([C@@](O)(C(=O)N2CCC(SC3CCN(c4ccc(C(=O)N(C)C)c(Cl)n4)CC3)CC2)C(F)(F)F)c1
(2) COc1cccc([C@@](O)(C(=O)N2CCC(CC3(C)CCN(c4ccc(C(=O)N(C)C)c(C)n4)CC3)CC2)C(F)(F)F)c1
(3) COc1cc(F)cc([C@@](O)(C(=O)N2CCC(C)(CC3CCN(c4ccc(C(=O)N(C)C)c(Cl)c4)CC3)CC2)C(F)(F)F)c1
Hello, I need these entries ordered by pEC50, highest reading first. Thanks! Provide your answer as the labels ordered per the instruction. 3, 1, 2

(1) CN(C)C(=O)c1ccc(N2CCC(CC3CCN(C(=O)[C@](O)(c4cccc(O)c4)C(F)(F)F)CC3)CC2)cc1Cl
(2) CC(C)C(O)(C(=O)N1CCC(CC2CCN(c3ccc(C(=O)N(C)C)c(Cl)c3)CC2)CC1)c1ccccc1 (centres unmarked)
Between these two entries, 1 and 2 , state which has the higher pEC50. API: response body contains the label of the selected item. 1
(1: 7.72, 2: 7.14)

====

Target: glutathione-S-transferase (GST) tagged LXRbeta LBD (ligand binding domain) (Homo sapiens, UniProt P55055)
Construct: purchased Invitrogen pv4658.pps
Assay: LanthaScreen TR-FRET Liver X Receptor Coactivator Assay, co-activator recruitment to LXRbeta LBD
Format: biochemical
Conditions: potency (Inflection Point, IP), co-activator recruitment to LXRbeta LBD, in relation to T0901317; read-out: LXR beta IP
Excerpt: […]
Assay Metric: EC50 (µM)

(A) CN(C)C(=O)c1ccc(N2CCC(CC3CCN(C(=O)[C@](O)(c4cc(Cl)cc(Cl)c4)C(F)(F)F)CC3)CC2)cc1 [Example 2-142]
(B) O=C(c1ccc(N2CCC(CC3CCN(C(=O)[C@](O)(c4ccccc4)C(F)(F)F)CC3)CC2)cc1Cl)N1CCC[C@H]1CO
(C) NC(=O)c1ccc(N2CCC(CC3CCN(C(=O)[C@](O)(c4ccccc4)C(F)(F)F)CC3)CC2)cc1Cl
(D) CN(C)C(=O)c1ccc(N2CCC(CC3CCN(C(=O)[C@@](O)(c4ccccc4)C(F)(F)F)CC3)CC2)cc1
Order the items by recorded EC50; the first position goes to the largest value. Respond with an ordered listing of the labels, as requested. D, A, C, B
(D: 0.877 µM, A: 0.06 µM, C: 0.009 µM, B: 0.005 µM)

(1) COc1cccc(C(O)(C(=O)N2CCC(CC3CCN(c4ccc(C(=O)N(C)C)c(Cl)n4)CC3)CC2)C(F)(F)C(F)(F)F)c1 (centres unmarked)
(2) CNC(=O)c1ccc(N2CCC(CC3CCN(C(=O)[C@](O)(c4cc(F)cc(OC)c4)C(F)(F)F)CC3)CC2)nc1Cl
Higher EC50: 1 or 2 ? Bench note: the answer is the label of the chosen record. 1
(1: 0.011 µM, 2: 0.005 µM)

(I) CC(C)Oc1cccc([C@@](O)(C(=O)N2CCC(C)(CC3CCN(c4ccc(C(=O)N(C)C)c(Cl)c4)CC3)CC2)C(F)(F)F)c1
(II) COc1cc(C)cc([C@@](O)(C(=O)N2CCC(CC3CCN(c4ccc(C(=O)N(C)C)c(Cl)c4)CC3)CC2)C(F)(F)F)c1
Could you please tell me which of these two has the higher EC50: I or II ? Give the chosen item's label as your response. II

(I) COc1cccc([C@@](O)(C(=O)N2CCC(CC3CCN(c4ccc(C(=O)N(C)C)c(Cl)c4)CC3)CC2)C(F)F)c1
(II) COc1cccc(C(=O)C(=O)N2CCC(CC3CCN(c4ccc(C(=O)N(C)C)c(Cl)c4)CC3)CC2)c1
(III) COc1cc(F)cc(C(O)(C(=O)N2CCC(CC3CCN(c4ccc(C(=O)N(C)C)c(Cl)n4)CC3)CC2)C(F)(F)F)c1 (centres unmarked)
(IV) COc1cccc(C(O)(C(=O)N2CCC(OC3CCN(c4ccc(C(=O)N(C)C)c(Cl)c4)CC3)CC2)C(F)(F)F)c1 (centres unmarked)
Could you please sort these 4 entries by EC50 from high to low? Record the ranking as a list of labels in the requested order. II, IV, I, III
(II: 0.409 µM, IV: 0.023 µM, I: 0.01 µM, III: 0.006 µM)

(a) CNC(=O)c1ccc(N2CCC(CC3CCN(C(=O)[C@](O)(c4cccc(OC)c4)C(F)(F)F)CC3)CC2)nc1Cl
(b) CN(C)C(=O)c1ccc(N2CCC(CC3CCN(C(=O)[C@](O)(c4cc(Cl)cc(Cl)c4)C(F)F)CC3)CC2)cc1Cl
From the items above, decide which of a and b has the lower EC50 reading. Write down the label of the entry you select. b

(A) CN(C)C(=O)c1ccc(N2CCC(CC3CCN(C(=O)C(O)(c4ccc(Cl)cc4)C(F)(F)F)CC3)CC2)cc1Cl (centres unmarked)
(B) CN(C)C(=O)c1ccc(N2CCC(OC3CCN(C(=O)C(O)(c4cccc(Cl)c4)C(F)(F)F)CC3)CC2)cc1Cl (centres unmarked)
Returns the identifier with the smallest measured EC50 among A and B . // output: label of the selected item B

(A) CC(C)c1cccc([C@@](O)(C(=O)N2CCC(CC3CCN(c4ccc(C(=O)N(C)C)cc4)CC3)CC2)C(F)(F)F)c1
(B) COc1cccc([C@@](O)(C(=O)N2CCC(CC3CCN(c4ccc(C(=O)N(C)C)c(C5CC5)n4)CC3)CC2)C(F)(F)F)c1
# argmax over EC50 for candidates A and B In your reply, give the label of the chosen option. A
(A: 0.052 µM, B: 0.019 µM)

(P) Cc1cc(N2CCC(CC3CCN(C(=O)[C@](O)(c4cc(F)cc(Cl)c4)C(F)(F)F)CC3)CC2)ccc1C(=O)N(C)C
(Q) CN(CCn1cncn1)C(=O)c1ccc(N2CCC(CC3CCN(C(=O)[C@](O)(c4cc(Cl)cc(Cl)c4)C(F)(F)F)CC3)CC2)cc1Cl
Lower EC50: P or Q ? Use the label to indicate which entry you chose. Q
(Q: 0.004 µM, P: 0.008 µM)
